- experimentSummary: Comment Code material properties: vapor pressure, ClogP, probability of ingredient color instability, odor detection threshold, melamine formaldehyde PMC headspace response ratio and leakage, liquid dish neat product liquid-air partition coefficient
- Assay type: physicochemical
- testParameters: Table 1 materials; each letter of the code is one property class (vapor pressure, ClogP, color instability, odor detection threshold, PMC headspace ratio, PMC leakage, liquid dish liquid-air partition coefficient)
measurementKind: Comment Code

# molecule, result
measured = [
    ("CC1=CCC(/C=C/C(C)(C)C(C)O)C1(C)C (stereo not drawn)", "DHJK"),
    ("CC(C)(C)c1ccc(CCC=O)cc1", "BDHJK"),
    ("COC1CC2CC1C1CC(C=O)CC21 (stereo not drawn)", "CHJK"),
    ("CCCCCCCCCCC=O", "BDHJK"),
]

* * *

- experimentSummary: Comment Code material properties: vapor pressure, ClogP, probability of ingredient color instability, odor detection threshold, melamine formaldehyde PMC headspace response ratio and leakage, liquid dish neat product liquid-air partition coefficient
- Format: physicochemical
- testParameters: cell strings several class symbols together; each letter is one property class of L1
measurementKind: Comment Code

Before answering, review these 5 worked examples.
# compound, Comment Code
records = [
    ("CC(O)C(C)/C=C1\\C[C@H]2C[C@@H]1[C@@H]1C=CC[C@H]21 (stereo partly drawn)", "DEFHJK"),
    ("CC(C)C12CCC(C)(CC1)O2", "ADGIJKL"),
    ("C=C1CCC2C3C(C(C)C)CCC2(C)C13 (stereo not drawn)", "BDEFHJKL"),
    ("C=C(C)C1CCC(C)C(=O)C1 (stereo not drawn) [Material 443]", "ACGIJKL"),
    ("C=CC(C)=CCC1OC1(C)C (stereo not drawn)", "ADGIJKL"),
]

The recorded Comment Code for CC1CCOC(c2ccccc2)C1 (stereo not drawn) is BDEFHJK

Per the record, C=C(C)C1CCC(C)C(=O)C1 (stereo not drawn) [Material 419] has Comment Code of ACGIJKL

response.value for CCC=CCCO (field: Comment Code) = ACEFHIKL

Per the records, this compound ( CCC(C)(O)/C=C/C=C(C)C (stereo not drawn) ) has Comment Code equal to BCEFGIJK

The reported value for O=C1CCCCCCC/C=C/CCCCCCC1 in terms of Comment Code is DEFGJ

// Cc1ccc(C(C)C)cc1O : Comment Code value = DHIJK

Comment Code in this record for CC1C(=O)CC2(C)CCCC(C)(C)C23CC13 (stereo not drawn) : BDEFHJK

Lab book: Comment Code of C=C[C@](C)(O)CCC=C(C)C noted as BCEFGIJK

Looking up CC(=O)OCCC1CCCCC1 , I see its Comment Code listed as BDEFHJKL

The compound CC12CCC(C1)C(C)(C)C2O (stereo not drawn) showed Comment Code equal to ACGIJKL

// Comment Code lookup, compound = CC(C)C(=O)OC1CC2CC1C1C=CCC21 (stereo not drawn) , result: DEFHJK

According to the records, this compound CCCC(=O)OC1CC2CC1C1CC=CC21 (stereo not drawn) displays Comment Code of DEFHJK

* * *

- experimentSummary: Comment Code material properties: vapor pressure, ClogP, probability of ingredient color instability, odor detection threshold, melamine formaldehyde PMC headspace response ratio and leakage, liquid dish neat product liquid-air partition coefficient
- Format: physicochemical
- testParameters: letter codes A-L: vapor pressure, ClogP, probability of ingredient color instability, odor detection threshold, PMC headspace response ratio, PMC leakage, liquid dish liquid-air partition coefficient; Table 1 materials with at least one MORV from 1 to 5
measurementKind: Comment Code

Look over these answered cases.
# compound, Comment Code
data = [
    ("COc1cc(CCC(C)=O)ccc1O", "CEFGJ"),
    ("COC(=O)c1ccccc1/N=C\\C1CCC(C)=CC1C (stereo not shown)", "DEFHJ"),
    ("C[C@H]1[C@@H]2C[C@H](C[C@@]13C=CC(=O)CC3)C2(C)C", "DEFHJK"),
    ("CC1(C)C2CCC3(C2)C1C1(CCC3(C)C)OCCO1 (stereo not shown) [Material 1144]", "DEFHJK"),
    ("CC1(C)C2CCC3(C2)C1C1(CCC3(C)C)OCCO1 (stereo not shown) [Material 1145]", "DEFHJK"),
    ("COCc1ccc(O)c(OC)c1", "CGIK"),
    ("COC(=O)c1c(C)cc(O)c(C)c1O", "CGIJ"),
    ("COC(=O)c1ccccc1N=CC(C)Cc1ccc(C(C)(C)C)cc1 (stereo not shown)", "DFHJ"),
    ("CC(=O)C1=C(C)[C@@H]2C[C@@]3(C1)[C@H](C)CC[C@H]3C2(C)C", "DHJK"),
    ("C[C@@H]1CC[C@H]2[C@@H]1[C@H]1[C@@H](CC[C@]2(C)O)C1(C)C", "DEFHJK"),
]

Shift focus to the following entry.
So, Cc1cc2c(cc1C#N)C(C)(C)C(C)C(C)C2(C)C (stereo not shown) ? Its Comment Code was DHJ

* * *

- experimentSummary: Comment Code material properties: vapor pressure, ClogP, probability of ingredient color instability, odor detection threshold, melamine formaldehyde PMC headspace response ratio and leakage, liquid dish neat product liquid-air partition coefficient
- Format: physicochemical
- testParameters: cell strings several class symbols together; each letter is one property class of L1
measurementKind: Comment Code

# molecule, result
rows = [
    ("C/C=C(\\C)C(=O)OCCc1ccccc1", "DHJK"),
    ("COC1CC2CC1C1CC(C=O)CC21 (centres unmarked)", "CHJK"),
    ("C=Cc1ccc(O)cc1", "BCHIK"),
]

* * *

- experimentSummary: Comment Code material properties: vapor pressure, ClogP, probability of ingredient color instability, odor detection threshold, melamine formaldehyde PMC headspace response ratio and leakage, liquid dish neat product liquid-air partition coefficient
- Assay type: physicochemical
- testParameters: Table 1 materials; each letter of the code is one property class (vapor pressure, ClogP, color instability, odor detection threshold, PMC headspace ratio, PMC leakage, liquid dish liquid-air partition coefficient)
measurementKind: Comment Code

# compound, Comment Code
records = [
    ("CC(=CCC1CC=C(C)C1(C)C)CO (centres unmarked) [Material 1025]", "CHJK"),
    ("CCOCOC1CCCCCCCCCCC1 [Material 607]", "DEFHJK"),
    ("CCCCCC1C(=O)CCC1CC(=O)OC (centres unmarked) [Material 1083]", "DFHJK"),
    ("CC1=CCCC2(C)CCC(C(C)(C)O)CC12 (centres unmarked) [Material 775]", "DEFHJK"),
    ("CC(C)(C)c1ccc2c(c1)OCC(=O)CO2 [Material 1085]", "CEFHJ"),
]

The compound listed as CCCCCC(=Cc1ccccc1)C(OCC)OCC [Material 723] shows Comment Code equal to DEFHJ

The compound identified as CC(=O)OC(C)CCC=C(C)CCC=C(C)C (centres unmarked) [Material 881] registered its Comment Code at DEFHJK

* * *

- experimentSummary: Comment Code material properties: vapor pressure, ClogP, probability of ingredient color instability, odor detection threshold, melamine formaldehyde PMC headspace response ratio and leakage, liquid dish neat product liquid-air partition coefficient
- Assay type: physicochemical
- testParameters: Table 1 materials; each letter of the code is one property class (vapor pressure, ClogP, color instability, odor detection threshold, PMC headspace ratio, PMC leakage, liquid dish liquid-air partition coefficient)
measurementKind: Comment Code

Recorded results for 6 compounds are shown here.
# compound, Comment Code
records = [
    ("CCCCCCC=CC=O [Material 837]", "ADHKL"),
    ("CCC(=O)OCC(=O)OC(C)C1CCCC(C)(C)C1 (stereo not shown) [Material 1009]", "DFHJ"),
    ("CCCCCCCC=CC=O [Material 856]", "ADHKL"),
    ("CC1=CCCC2(C)OC2CCC(C)=CCC1 (stereo not shown) [Material 568]", "DFHJK"),
    ("COC(Cc1ccccc1)OC [Material 627]", "DHJK"),
    ("COC(=O)c1ccccc1N=CCC(C)CCCC(C)(C)O (stereo not shown) [Material 661]", "DEFHJ"),
]

The compound O=C(OCc1ccccc1)c1ccccc1 [Material 653] showed Comment Code equal to DHJ

Sample CCCCC=CC=CC=O [Material 738] ; Comment Code observed: ACHKL

* * *

- experimentSummary: Comment Code material properties: vapor pressure, ClogP, probability of ingredient color instability, odor detection threshold, melamine formaldehyde PMC headspace response ratio and leakage, liquid dish neat product liquid-air partition coefficient
- Format: physicochemical
- testParameters: Table 1 materials; each letter of the code is one property class (vapor pressure, ClogP, color instability, odor detection threshold, PMC headspace ratio, PMC leakage, liquid dish liquid-air partition coefficient)
measurementKind: Comment Code

# molecule, Comment Code
rows = [
    ("CCCCC/C=C/C=C\\C(=O)OCC", "BDEFHJK"),
    ("COc1ccc(C=O)c(OC)c1OC", "BCGI"),
    ("CC(=O)CCCC(C)CCCC(C)CCCC(C)C (stereo not drawn)", "DEFHJK"),
    ("COC(=O)c1ccccc1NC(O)CC(C)c1ccccc1 (stereo not drawn)", "DFHJ"),
    ("CC(C)=C1CCC2=CC(=O)CC(C)C2(C)C1 (stereo not drawn)", "DHJK"),
    ("CC(C)(O)Cc1ccccc1", "BCEFGIK"),
    ("CC(CO)CCCc1ccccc1 (stereo not drawn)", "DEFHJK"),
    ("C=C(C)C1CC=C(C)CC1 (stereo not drawn)", "ADEFGIJKL"),
    ("CC(C)(C)C(=O)OC1CC2CC1C1CC=CC21 (stereo not drawn)", "DEFHJK"),
    ("C=C(C)C1CCC2(C)CCC=C(C)C2C1 (stereo not drawn) [Material 774]", "BDEFHJK"),
]

Record summary for CC1=CC2CC(C3OCCO3)C1CC2C(C)C (stereo not drawn) : reported Comment Code = DEFHJK

Data point: CC1CCC(C(C)(C)S)C(=O)C1 (stereo not drawn) ; Comment Code = BDEFHIJKL

Comment Code recorded for this molecule, c1ccc(CCOC2CCCCC2)cc1 , is DEFHJK

CC1(O)CCC2=C(CCCC2(C)C)C1 (stereo not drawn) [Material 675] yielded Comment Code of DEFHJK

Short answer for OCCOc1ccccc1 : Comment Code was BCEFGIK

The molecule listed as O=C(OCCc1ccccc1)c1ccccc1 shows Comment Code equal to DHJ

molecule CC1(O)CCC2=C(CCCC2(C)C)C1 (stereo not drawn) [Material 676] , Comment Code observed: DEFHJK

Sample C=CC(C)=CCC=C(C)CCC=C(C)C ; Comment Code observed: DEFHJK

Note to self: Comment Code recorded for CC(C)=CCCC(C)(O)C1CC=C(C)CC1 (stereo not drawn) was DFHJK
